system: human SKM-1 acute myeloid leukemia cells; assay: SKM-1 antiproliferation cell-based assay (ATPlite); conditions: Homo sapiens, SKM-1, 96 h, SKM-1 antiproliferation assay, 4 days, Table C2
recorded.metric: GI50

>>> df
                                   compound  endpoint_result
0  CC(=O)Nc1ccc(-c2cc(F)cc(-c3cccc(N4CCNCC4)c3)c2O)cc1F   300 to 3000 nM
1  CC(=O)Nc1ccc(-c2cccc(-c3ccc(N4CCN(C)C4=O)c(Cl)c3)c2O)cc1N1CCNCC1     30 to 300 nM
2  Cn1ccn(-c2ccc(-c3cc(F)cc(-c4ccnc(C5CCCNC5)c4)c3O)cc2Cl)c1=O (stereo not shown)     0.3 to 30 nM

Request: Short answer please: GI50, human SKM-1 acute myeloid leukemia cells, entry `Cn1ccn(-c2ccc(-c3cc(F)cc(-c4ccnc(N5CCN(C67CC(C6)C7)CC5)c4)c3O)cc2Cl)c1=O`
Result: 30 to 300 nM

Request: Short answer please: GI50, human SKM-1 acute myeloid leukemia cells, entry CN1CCCC12CCCN(c1cc(-c3cc(F)cc(-c4ccc(-n5ccn(C)c5=O)c(Cl)c4)c3O)ccn1)C2 (stereo not shown)
Result: 0.3 to 30 nM

Request: Short answer please: GI50, human SKM-1 acute myeloid leukemia cells, entry `CN1CCN(c2ccc(-c3cc(C4CC4)cc(-c4ccnc(N5CCNCC5)c4)c3O)cc2Cl)C1=O`
Result: 300 to 3000 nM

Request: Short answer please: GI50, human SKM-1 acute myeloid leukemia cells, entry COC(=O)CC1CN(c2cc(-c3cc(F)cc(-c4ccc(-n5ccn(C)c5=O)c(Cl)c4)c3O)ccn2)CCN1 (stereo not shown)
Result: 30 to 300 nM

---

target: human BRD4 bromodomain II (Homo sapiens); construct: human BRD4 bromodomain II [based on Genbank NM_058243, residues 349-460]; host or cells: E. coli; assay: Bromodomain binding assay (AlphaScreen), BRD4 BDII; conditions: AlphaScreen assay, Table C2; read-out: BRD4 BDII IC50
pIC50: −log10 of the molar value.
Reported pIC50 values for the following compounds.

Request: Param item = Cn1ncn(-c2ccc(-c3cc(F)cc(-c4ccnc(N5CCNCC5)c4)c3O)cc2Cl)c1=O [Example 462] ; retrieve measured pIC50.
Result: 8.00 to 9.00

Request: Param item = CC(C)N1CCN(c2cc(-c3cc(F)cc(-c4ccc(-n5ccn(C)c5=O)c(Cl)c4)c3O)cn3ccnc23)CC1 [Example 670] ; retrieve measured pIC50.
Result: 9.00 to 11.00

Request: Param item = CC(=O)Nc1ccc(-c2cccc(-c3cc(C(N)=O)nc(N4CCNCC4)c3)c2O)cc1F [Example 273] ; retrieve measured pIC50.
Result: 7.00 to 8.00

Request: Param item = Cn1ccn(-c2ccc(-c3cc(F)cc(-c4ccnc(N5CCN(CC6CCC6)CC5)c4)c3O)cc2Cl)c1=O [Example 646] ; retrieve measured pIC50.
Result: 9.00 to 11.00

Request: Param item = Cn1ccn(-c2ccc(-c3cc(F)cc(-c4cccc(C#CC(C)(C)O)c4)c3O)cc2Cl)c1=O [Example 772] ; retrieve measured pIC50.
Result: 7.00 to 8.00

Request: Param item = Cn1cnn(-c2ccc(-c3cc(F)cc(-c4ccnc(N5CCNCC5)c4)c3O)cc2Cl)c1=O [Example 499] ; retrieve measured pIC50.
Result: 8.00 to 9.00

Request: Param item = [2H]C([2H])([2H])N1CCN(c2ccc(-c3cc(F)cc(-c4ccnc(N5CCNCC5)c4)c3O)cc2Cl)C1=O [Example 412] ; retrieve measured pIC50.
Result: 9.00 to 11.00

Request: Param item = O=C1CCN1c1ccc(-c2cc(F)cc(-c3ccnc(N4CCNCC4)c3)c2O)cc1Cl [Example 417] ; retrieve measured pIC50.
Result: 8.00 to 9.00

Request: Param item = [2H]C([2H])([2H])n1ccn(-c2ccc(-c3cc(F)cc(-c4ccnc(N5CCNCC5=O)c4)c3O)cc2Cl)c1=O [Example 464] ; retrieve measured pIC50.
Result: 9.00 to 11.00

Request: Param item = Cn1ccn(-c2ccc(-c3cc(F)cc(-c4cccc(N5CC[C@@](C)(N)C5)c4)c3O)cc2Cl)c1=O [Example 758] ; retrieve measured pIC50.
Result: 9.00 to 11.00

Request: Param item = Cn1ccn(-c2ccc(-c3cc(F)cc(-c4ccnc(N5CCC[C@H](N)C5)c4)c3O)cc2Cl)c1=O [Example 411] ; retrieve measured pIC50.
Result: 9.00 to 11.00

Request: Param item = Cn1ccn(-c2ccc(-c3cc(F)cc(-c4ccnc(N5CCN(CC6CC6)CC5)c4)c3O)cc2Cl)c1=O [Example 470] ; retrieve measured pIC50.
Result: 8.00 to 9.00

Request: Param item = CC(=O)Nc1ccc(-c2cccc(-c3cccc(C)c3)c2O)cc1F [Example 55] ; retrieve measured pIC50.
Result: < 7.00

Request: Param item = COC(=O)CC1CN(c2cc(-c3cc(F)cc(-c4ccc(-n5ccn(C)c5=O)c(Cl)c4)c3O)ccn2)CCN1 (stereo not drawn) [Example 679] ; retrieve measured pIC50.
Result: 8.00 to 9.00

Request: Param item = CC(=O)Nc1ccc(-c2cccc(-c3ccc(NC(C)=O)cc3)c2O)cc1 [Example 11] ; retrieve measured pIC50.
Result: < 7.00

Request: Param item = CC(=O)Nc1ccc(-c2cccc(-c3cc(N4CCNCC4)ccc3C)c2O)cc1F [Example 181] ; retrieve measured pIC50.
Result: < 7.00

Request: Param item = O=C1CCCN1c1ccc(-c2cccc(-c3ccnc(N4CC5(CNC5)C4)c3)c2O)cc1F [Example 284] ; retrieve measured pIC50.
Result: 7.00 to 8.00

Request: Param item = COc1ncc(-c2cc(F)cc(-c3ccc(-n4ccn(C)c4=O)c(Cl)c3)c2O)cc1N1CCN(C(C)(C)C2CC2)CC1 [Example 847] ; retrieve measured pIC50.
Result: 8.00 to 9.00

---

Reported GI50 values for the following molecules.
test system: human SKM-1 acute myeloid leukemia cells; test: SKM-1 antiproliferation cell-based assay (ATPlite); settings: Homo sapiens, SKM-1, 96 h, SKM-1 antiproliferation assay, 4 days, Table C2

Reference set, count: 5
>>> print(df.to_string())
                                   molecule  recorded_metric  endpoint_result
0  Cn1ccn(-c2ccc(-c3cc(F)cc(-c4ccnc(N5CCN(C(C)(C)C)CC5)c4)c3O)cc2Cl)c1=O [Example 614]             GI50     0.3 to 30 nM
1  Cn1cc(-c2cc(F)cc(-c3ccc(-n4ccn(C)c4=O)c(Cl)c3)c2O)cc(N2CCN(C(C)(C)C)CC2)c1=O [Example 668]             GI50     0.3 to 30 nM
2  Cn1ccn(-c2ccc(-c3cc(F)cc(-c4ccnc(N5CCN(C6CCOCC6)CC5)c4)c3O)cc2Cl)c1=O [Example 634]             GI50     0.3 to 30 nM
3  CN1CCN(c2ccc(-c3cccc(-c4cc(-c5ccccc5)nc(N5CCNCC5)c4)c3O)cc2Cl)C1=O [Example 344]             GI50     30 to 300 nM
4  O=C1CCCN1c1ccc(-c2cccc(-c3cccc(N4CCNCC4)c3)c2O)cc1F [Example 173]             GI50   300 to 3000 nM

Request: Param item = Cn1ccn(-c2ccc(-c3cc(F)cc(-c4ccnc(N5CCS(=O)(=O)CC5)c4)c3O)cc2Cl)c1=O [Example 707] ; retrieve measured GI50.
Result: 30 to 300 nM

Request: Param item = CC(C)CN1CCN(c2cc(-c3cc(F)cc(-c4ccc(-n5ccn(C)c5=O)c(Cl)c4)c3O)ccn2)CC1 [Example 682] ; retrieve measured GI50.
Result: 0.3 to 30 nM

Request: Param item = O=C1CCCCN1c1ccc(-c2cc(F)cc(-c3ccnc(N4CCNCC4)c3)c2O)cc1F [Example 280] ; retrieve measured GI50.
Result: 300 to 3000 nM

Request: Param item = CC(C)N1CCCN(c2cc(-c3cc(F)cc(-c4ccc(-n5ccn(C)c5=O)c(Cl)c4)c3O)ccn2)CC1 [Example 678] ; retrieve measured GI50.
Result: 0.3 to 30 nM

Request: Param item = CCN1CCN(c2cc(-c3cc(F)cc(-c4ccc(-n5ccn(C)c5=O)c(Cl)c4)c3O)cc3[nH]ncc23)CC1 [Example 582] ; retrieve measured GI50.
Result: 0.3 to 30 nM

Request: Param item = Cn1ncn(-c2ccc(-c3cc(F)cc(-c4ccnc(N5CCNCC5)c4)c3O)cc2Cl)c1=O [Example 462] ; retrieve measured GI50.
Result: 30 to 300 nM

Request: Param item = CC(C)N1CCN(c2cc(-c3cc(F)cc(-c4ccc(-n5ccn(C)c5=O)c(Cl)c4)c3O)cn(C)c2=O)CC1 [Example 661] ; retrieve measured GI50.
Result: 0.3 to 30 nM

Reference for the values: patent US20250179059A1
